Reported solubility values are given for each entry in this list.
# methodNotes: Solubility of substrate
# Format: physicochemical
# conditionsUsed: read-out: S: Solubility

The following compounds have reported results that may help.
N[C@@H](CCC(=O)Nc1ccc(N(CCCS(=O)(=O)O)CCCS(=O)(=O)O)c(S(=O)(=O)O)c1)C(=O)O [compound 7]	> 20 mg/mL
Cc1cc(NC(=O)[C@@H](N)CC(C)C)ccc1N(CCS(=O)(=O)O)CCS(=O)(=O)O [compound 12]	> 200 mg/mL
CC(C)C[C@H](N)C(=O)Nc1ccc(N(CCCS(=O)(=O)O)CCCS(=O)(=O)O)c(S(=O)(=O)O)c1 [compound 8]	> 200 mg/mL

Shift focus to the following entry.
Exercise: Provide one value: measured solubility of COC(=O)c1cc(NC(=O)[C@@H](N)CC(C)C)ccc1N(CCCCS(=O)(=O)O)CCCCS(=O)(=O)O [compound 13]
Solution: > 200 mg/mL

---

# methodNotes: Maximum wavelength of formed pigment
# Format: physicochemical
readoutName: λmax: Maximum wavelength (nm)
Reply numerically in nm, unit not repeated.

Recorded results for 2 compounds are shown here.
COC(=O)c1cc(NC(=O)[C@@H](N)CC(C)C)ccc1N(CCCCS(=O)(=O)O)CCCCS(=O)(=O)O	705
N[C@@H](CCC(=O)Nc1ccc(N(CCCS(=O)(=O)O)CCCS(=O)(=O)O)c(S(=O)(=O)O)c1)C(=O)O	680

# ---- query compound ----
Exercise: For the compound CC(C)C[C@H](N)C(=O)Nc1ccc(N(CCCS(=O)(=O)O)CCCS(=O)(=O)O)c(S(=O)(=O)O)c1 , give its measured λmax: Maximum wavelength value.
Solution: 680
